target: GTPase KRas (Homo sapiens, UniProt P01116, G12D); experiment: Inhibition of recombinant biotinylated KRAS G12D mutant (unknown origin) assessed as inhibition of SOS-catalyzed nucleotide exchange preincubated for 60 mins followed by addition of human SOS protein and unlabeled GTP and measured after 60 mins by TR-FRET analysis
Sequence (P01116 whole entry G12D): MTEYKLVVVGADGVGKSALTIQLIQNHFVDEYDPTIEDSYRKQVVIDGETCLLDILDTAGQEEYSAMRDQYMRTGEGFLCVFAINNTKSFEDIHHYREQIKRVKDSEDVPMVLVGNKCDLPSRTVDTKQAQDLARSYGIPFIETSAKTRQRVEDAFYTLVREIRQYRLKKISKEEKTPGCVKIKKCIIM
pIC50: −log10 of the molar value. Where a SMILES comes first, the peptide text is derived from it. Bridges are numbered along the chain shown (N, C = ends). [ ]: non-standard residue; d: D form. Ala(4-thiazolyl) = N[C@@H](Cc1cscn1)C(=O)O; Bip = N[C@@H](Cc1ccc(-c2ccccc2)cc1)C(=O)O; Ala(cPent) = N[C@@H](CC1CCCC1)C(=O)O; hPhe = N[C@@H](CCc1ccccc1)C(=O)O; Abu(4-CN) = N#CCC[C@H](N)C(=O)O; Cha = N[C@@H](CC1CCCCC1)C(=O)O; Ahp(2) = CCCCC[C@H](N)C(=O)O; hLeu = CC(C)CC[C@H](N)C(=O)O
Recorded pIC50, one value per entry.

- molecule: "CC[C@H](C)[C@@H]1NC(=O)[C@H](Cc2ccc(O)cc2)NC(=O)[C@H](CC(C)C)NC(=O)[C@@H]2CCCN2C(=O)[C@@H](NC(=O)[C@H](CCCNC(=N)N)NC(=O)[C@H](CCCNC(=N)N)NC(C)=O)CSSC[C@@H](C(=O)N[C@@H](CCCNC(=N)N)C(=O)N[C@@H](CCCNC(=N)N)C(N)=O)NC(=O)[C@H](C(C)C)NC(=O)[C@@H]2CCCN2C(=O)[C@H](CC(=O)O)NC(=O)[C@H](Cc2ccc(O)cc2)NC(=O)[C@H](CO)NC1=O (Ac-RRCPLYISYDPVCRR-NH2; disulfide 3-13)"
  valueModifier: "="
  pIC50: 7.27
- molecule: "CC[C@H](C)[C@@H]1NC(=O)[C@H](CCc2ccccc2)NC(=O)[C@H](CC(C)C)NC(=O)[C@@H]2CCCN2C(=O)[C@@H](NC(=O)[C@H](CCCNC(=N)N)NC(=O)[C@H](CCCNC(=N)N)NC(C)=O)CSSC[C@@H](C(=O)N[C@@H](CCCNC(=N)N)C(=O)N[C@@H](CCCNC(=N)N)C(N)=O)NC(=O)[C@H](C(C)C)NC(=O)[C@@H]2CCCN2C(=O)[C@H](CC(=O)O)NC(=O)[C@H](Cc2ccc(O)cc2)NC(=O)[C@H](CO)NC1=O (Ac-RRCPL[hPhe]ISYDPVCRR-NH2; disulfide 3-13)"
  valueModifier: "="
  pIC50: 5.86
- molecule: "CC[C@H](C)[C@@H]1NC(=O)[C@H](CC2CCCCC2)NC(=O)[C@H](CC(C)C)NC(=O)[C@@H]2CCCN2C(=O)[C@@H](NC(=O)[C@H](CCCNC(=N)N)NC(=O)[C@H](CCCNC(=N)N)NC(C)=O)CSSC[C@@H](C(=O)N[C@@H](CCCNC(=N)N)C(=O)N[C@@H](CCCNC(=N)N)C(N)=O)NC(=O)[C@H](C(C)C)NC(=O)[C@@H]2CCCN2C(=O)[C@H](CC(=O)O)NC(=O)[C@H](Cc2ccc(O)cc2)NC(=O)[C@H](CO)NC1=O (Ac-RRCPL[Cha]ISYDPVCRR-NH2; disulfide 3-13)"
  valueModifier: "="
  pIC50: 6.79
- molecule: "CC(=O)N[C@@H](CCCNC(=N)N)C(=O)N[C@@H](CCCNC(=N)N)C(=O)N[C@H]1CSSC[C@@H](C(=O)N[C@@H](CCCNC(=N)N)C(=O)N[C@@H](CCCNC(=N)N)C(N)=O)NC(=O)[C@H](C(C)C)NC(=O)[C@@H]2CCCN2C(=O)[C@H](CC(=O)O)NC(=O)[C@H](Cc2ccc(O)cc2)NC(=O)[C@H](CO)NC(=O)[C@H](CCC(C)C)NC(=O)[C@H](CC2CCCCC2)NC(=O)[C@H](CC(C)C)NC(=O)[C@@H]2CCCN2C1=O (Ac-RRCPL[Cha][hLeu]SYDPVCRR-NH2; disulfide 3-13)"
  valueModifier: "<"
  pIC50: 4.95
- molecule: "CCCCC[C@@H]1NC(=O)[C@@H]2CCCN2C(=O)[C@H](CC(=O)O)NC(=O)[C@H](Cc2ccc(O)cc2)NC(=O)[C@H](CO)NC(=O)[C@H]([C@@H](C)CC)NC(=O)[C@H](Cc2ccc(-c3ccccc3)cc2)NC(=O)[C@H](CC(C)C)NC(=O)[C@@H]2CCCN2C(=O)[C@@H](NC(=O)[C@H](CCCNC(=N)N)NC(=O)[C@H](CCCNC(=N)N)NC(C)=O)CSSC[C@@H](C(=O)N[C@@H](CCCNC(=N)N)C(=O)N[C@@H](CCCNC(=N)N)C(N)=O)NC1=O (Ac-RRCPL[Bip]ISYDP[Ahp(2)]CRR-NH2; disulfide 3-13)"
  valueModifier: "="
  pIC50: 8.30
- molecule: "CC(=O)N[C@@H](CCCNC(=N)N)C(=O)N[C@@H](CCCNC(=N)N)C(=O)N[C@H]1CSSC[C@@H](C(=O)N[C@@H](CCCNC(=N)N)C(=O)N[C@@H](CCCNC(=N)N)C(N)=O)NC(=O)[C@H](C(C)C)NC(=O)[C@@H]2CCCN2C(=O)[C@H](CC(=O)O)NC(=O)[C@H](Cc2ccc(O)cc2)NC(=O)[C@H](CO)NC(=O)[C@H](CC2CCCC2)NC(=O)[C@H](Cc2ccc(O)cc2)NC(=O)[C@H](CC(C)C)NC(=O)[C@@H]2CCCN2C1=O (Ac-RRCPLY[Ala(cPent)]SYDPVCRR-NH2; disulfide 3-13)"
  valueModifier: "<"
  pIC50: 4.95
- molecule: "CC[C@H](C)[C@@H]1NC(=O)[C@H](Cc2ccc(-c3ccccc3)cc2)NC(=O)[C@H](CC(C)C)NC(=O)[C@@H]2CCCN2C(=O)[C@@H](NC(=O)[C@H](CCCNC(=N)N)NC(=O)[C@H](CCCNC(=N)N)NC(C)=O)CSSC[C@@H](C(=O)N[C@@H](CCCNC(=N)N)C(=O)N[C@@H](CCCNC(=N)N)C(N)=O)NC(=O)[C@H](CCC#N)NC(=O)[C@@H]2CCCN2C(=O)[C@H](CC(=O)O)NC(=O)[C@H](Cc2ccc(O)cc2)NC(=O)[C@H](CO)NC1=O (Ac-RRCPL[Bip]ISYDP[Abu(4-CN)]CRR-NH2; disulfide 3-13)"
  valueModifier: "="
  pIC50: 7.62
- molecule: "CC[C@H](C)[C@@H]1NC(=O)[C@H](Cc2ccc(O)cc2)NC(=O)[C@H](CC(C)C)NC(=O)[C@@H]2CCCN2C(=O)[C@@H](NC(=O)[C@H](CCCNC(=N)N)NC(=O)[C@H](CCCNC(=N)N)NC(C)=O)CSSC[C@@H](C(=O)N[C@@H](CCCNC(=N)N)C(=O)N[C@@H](CCCNC(=N)N)C(N)=O)NC(=O)[C@H](C(C)C)NC(=O)[C@@H]2CCCN2C(=O)[C@H](CC(=O)O)NC(=O)[C@H](Cc2ccc(O)cc2)NC(=O)[C@H](Cc2cscn2)NC1=O (Ac-RRCPLYI[Ala(4-thiazolyl)]YDPVCRR-NH2; disulfide 3-13)"
  valueModifier: "="
  pIC50: 5.64
